These entries and their values trace back to patent US20090130114A1.

- TGT: T1, human WISE (human, UniProt Q6X4U4 24-206)
- T1 construct: Recombinant, made in E. coli or mammalian cells; biotinylated in the ELISAs, amine-coupled to CM5 in Biacore; also called huWise; huWISE
- T1 sequence: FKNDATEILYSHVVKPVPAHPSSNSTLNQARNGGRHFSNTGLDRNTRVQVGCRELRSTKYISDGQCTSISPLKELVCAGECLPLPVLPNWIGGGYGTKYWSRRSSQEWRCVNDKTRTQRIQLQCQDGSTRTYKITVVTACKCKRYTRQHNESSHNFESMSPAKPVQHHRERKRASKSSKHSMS
- TEST_DETAILS: assay not specified (IgG2 from transient transfection)

BINDER	binding result
Ab-18 (antibody, human IgG2, kappa, V domains shown, Phage-derived human light chain with the humanized Ab-C IgG2 heavy chain) VH: QVQLVQSGAEVKKPGSSVKVSCKASGGTFSSTYISWVRQAPGQGLEWMGWIYAGTGGTRYNRKFTGRVTITADESTSTAYMELSSLRSEDTAVYYCAREGVDGWFTYWGQGTLVTVSS VL: DIQLTQSPSSLSASVGDRVTITCQASQDINNYLSWYQQKPGKAPKVLIYDTSNLETGVPSRFSGSGSGTDFTFTISSLQPEDIATYYCQQSDNLPYTFGQGTKLEIKR	binds
Ab-1 (antibody, human IgG2, lambda, V domains shown, Phage-derived human light chain with the humanized Ab-C IgG2 heavy chain, transiently expressed in 293 6E cells) VH: QVQLVQSGAEVKKPGSSVKVSCKASGGTFSSTYISWVRQAPGQGLEWMGWIYAGTGGTRYNRKFTGRVTITADESTSTAYMELSSLRSEDTAVYYCAREGVDGWFTYWGQGTLVTVSS VL: QSVVTQPPSVSGAPGQRVTMSCTGSSSNLGAGYDVNWYQQLPGKAPKVLIYGNEIRPSGVPDRFSGSKSDTSATLDITGLQTGDEADYYCETWDSSLSTVVFGGGTKLTVLG	binds
